Numbers sourced from ChEMBL document CHEMBL1142742.

organism: Cavia porcellus; experiment: Effective dose was measured in guinea pig infected with Microsporum canis on 14th day; type: functional; conditions: Cavia porcellus; read-out: ED50
readout: ED50 (mg/kg)
Kindly answer with a numeric value in mg/kg, unit omitted.

Check out these entries, answers already filled in.
compound	ED50 (mg/kg)
CCN1C(=O)N(c2ccc(N3CCN(c4ccc(OC[C@@H]5CO[C@@](Cn6cncn6)(c6ccc(F)cc6F)O5)cc4)CC3)cc2)C(=O)C(C)(C)C1=O	3.28
CCC1C(=O)N(CC)C(=O)N(c2ccc(N3CCN(c4ccc(OC[C@@H]5CO[C@@](Cn6cncn6)(c6ccc(F)cc6F)O5)cc4)CC3)cc2)C1=O (stereo partly specified)	1.94
CCN1C(=O)N(c2ccc(N3CCN(c4ccc(OC[C@H]5OC[C@](Cn6cncn6)(c6ccc(F)cc6F)O5)cc4)CC3)cc2)C(=O)C(C)(C)C1=O	2.35
CCCn1c(=O)n(CC)c(=O)n(-c2ccc(N3CCN(c4ccc(OC[C@H]5OC[C@](Cn6cncn6)(c6ccc(F)cc6F)O5)cc4)CC3)cc2)c1=O	2.35

With those in mind, consider the next compound.
Find the recorded ED50 belonging to "CC(C)N1CCN(c2ccc(N3CCN(c4ccc(OC[C@@H]5CO[C@@](Cn6cncn6)(c6ccc(F)cc6F)O5)cc4)CC3)cc2)C1=O" and report it. 0.44

====

system: Epidermophyton floccosum; experiment: Minimum inhibitory concentration against Epidermophyton floccosum (n=12); type: functional; details: Epidermophyton floccosum; read-out: MIC50
readout: MIC50 (µg/mL)
Express it in µg/mL; write the number only.

For the compound "CC(C)N1CCN(c2ccc(N3CCN(c4ccc(OC[C@@H]5CO[C@@](Cn6cncn6)(c6ccc(F)cc6F)O5)cc4)CC3)cc2)C1=O" , what MIC50 is on record? 0.032

Also "CC(C)N1CCN(c2ccc(N3CCN(c4ccc(OC[C@@H]5OC[C@@](Cn6cncn6)(c6ccc(F)cc6F)O5)cc4)CC3)cc2)C1=O" ? 1

Likewise for "CCCn1c(=O)n(CC)c(=O)n(-c2ccc(N3CCN(c4ccc(OC[C@H]5OC[C@](Cn6cncn6)(c6ccc(F)cc6F)O5)cc4)CC3)cc2)c1=O" ? 1

Would you mind doing CCC1C(=O)N(CC)C(=O)N(c2ccc(N3CCN(c4ccc(OC[C@@H]5CO[C@@](Cn6cncn6)(c6ccc(F)cc6F)O5)cc4)CC3)cc2)C1=O (some centres not stated) as well? 1

Likewise for "CN(C/C=C/C#CC(C)(C)C)Cc1cccc2ccccc12" ? 0.032

Same for "CCCn1c(=O)n(CC)c(=O)n(-c2ccc(N3CCN(c4ccc(OC[C@H]5CO[C@](Cn6cncn6)(c6ccc(F)cc6F)O5)cc4)CC3)cc2)c1=O" 1

====

species on record: Cavia porcellus; test: Effective dose was measured in guinea pig infected with Microsporum canis on 14th day; type: functional; conditions: Cavia porcellus; read-out: ED50
readout: ED50 (mg/kg)
# unit: mg/kg | format: bare number

Here is how some compounds turned out for ED50.
compound	ED50 (mg/kg)
CC(C)N1CCN(c2ccc(N3CCN(c4ccc(OC[C@@H]5OC[C@@](Cn6cncn6)(c6ccc(F)cc6F)O5)cc4)CC3)cc2)C1=O	2.5
CN(C/C=C/C#CC(C)(C)C)Cc1cccc2ccccc12	10

Next:
For CCC(C)n1ncn(-c2ccc(N3CCN(c4ccc(OC[C@H]5CO[C@](Cn6cncn6)(c6ccc(Cl)cc6Cl)O5)cc4)CC3)cc2)c1=O (stereo partly specified) , what is its reported ED50? 1.2

====

Catalogue of molecules with associated log10(MIC90)
tested on: Trichophyton tonsurans; assay: Minimum inhibitory concentration against Trichophyton tonsurans (n=18); type: functional; settings: Trichophyton tonsurans; read-out: MIC90
Base-10 log of MIC90, unit µg/mL.

# example entries with known answers
molecule	log10(MIC90)
CCN1C(=O)N(c2ccc(N3CCN(c4ccc(OC[C@H]5OC[C@](Cn6cncn6)(c6ccc(F)cc6F)O5)cc4)CC3)cc2)C(=O)C(C)(C)C1=O	1.11
CC(C)N1CCN(c2ccc(N3CCN(c4ccc(OC[C@@H]5OC[C@@](Cn6cncn6)(c6ccc(F)cc6F)O5)cc4)CC3)cc2)C1=O	1.30
CN(C/C=C/C#CC(C)(C)C)Cc1cccc2ccccc12	-1.28
CCC(C)n1ncn(-c2ccc(N3CCN(c4ccc(OC[C@H]5CO[C@](Cn6cncn6)(c6ccc(Cl)cc6Cl)O5)cc4)CC3)cc2)c1=O (stereo partly specified)	-0.28

Suppose we examine the molecule "CC(C)N1CCN(c2ccc(N3CCN(c4ccc(OC[C@@H]5CO[C@@](Cn6cncn6)(c6ccc(F)cc6F)O5)cc4)CC3)cc2)C1=O" ; what log10(MIC90) value has been reported? 0.00

====

test: Minimum inhibitory concentration against Trichophyton species (n=80); type: functional; conditions: Trichophyton; read-out: MIC90
Quick reference for MIC90 among some compounds
The response must be a number in µg/mL with no trailing unit.

compound	measurement.unit	MIC90
CC(C)N1CCN(c2ccc(N3CCN(c4ccc(OC[C@@H]5OC[C@@](Cn6cncn6)(c6ccc(F)cc6F)O5)cc4)CC3)cc2)C1=O	µg/mL	20

// query MIC90 value for entry "CN(C/C=C/C#CC(C)(C)C)Cc1cccc2ccccc12" 0.032

Field entry: "CC(C)N1CCN(c2ccc(N3CCN(c4ccc(OC[C@@H]5CO[C@@](Cn6cncn6)(c6ccc(F)cc6F)O5)cc4)CC3)cc2)C1=O" 1

What do you get for CCC(C)n1ncn(-c2ccc(N3CCN(c4ccc(OC[C@H]5CO[C@](Cn6cncn6)(c6ccc(Cl)cc6Cl)O5)cc4)CC3)cc2)c1=O (some centres undefined) ? 1

====

tested on: Epidermophyton floccosum; test: Minimum inhibitory concentration against Epidermophyton floccosum (n=12); format: functional; conditions: Epidermophyton floccosum; read-out: MIC50
readout: MIC50

Reference set (4 entries):
compound	test.target	MIC50
CCN1C(=O)N(c2ccc(N3CCN(c4ccc(OC[C@H]5CO[C@](Cn6cncn6)(c6ccc(F)cc6F)O5)cc4)CC3)cc2)C(=O)C(C)(C)C1=O	Epidermophyton floccosum	3.2 µg/mL
CCC(C)n1ncn(-c2ccc(N3CCN(c4ccc(OC[C@H]5CO[C@](Cn6cncn6)(c6ccc(Cl)cc6Cl)O5)cc4)CC3)cc2)c1=O (stereo not given in full)	Epidermophyton floccosum	0.032 µg/mL
CCN1C(=O)N(c2ccc(N3CCN(c4ccc(OC[C@@H]5OC[C@@](Cn6cncn6)(c6ccc(F)cc6F)O5)cc4)CC3)cc2)C(=O)C(C)(C)C1=O	Epidermophyton floccosum	> 20 µg/mL
CCN1C(=O)N(c2ccc(N3CCN(c4ccc(OC[C@H]5OC[C@](Cn6cncn6)(c6ccc(F)cc6F)O5)cc4)CC3)cc2)C(=O)C(C)(C)C1=O	Epidermophyton floccosum	1 µg/mL

--- query ---
// MIC50 lookup, key: "CCN1C(=O)N(c2ccc(N3CCN(c4ccc(OC[C@@H]5CO[C@@](Cn6cncn6)(c6ccc(F)cc6F)O5)cc4)CC3)cc2)C(=O)C(C)(C)C1=O" 1 µg/mL

====

// reported MIC50 for each item listed
test system: Candida; experiment: Minimum inhibitory concentration against Candida species (n=24); type: functional; settings: Candida; read-out: MIC50
I only need the number, in µg/mL, no unit after it.

compound	reported.measurement
CC(C)N1CCN(c2ccc(N3CCN(c4ccc(OC[C@@H]5OC[C@@](Cn6cncn6)(c6ccc(F)cc6F)O5)cc4)CC3)cc2)C1=O	20

Using the record for CCC1C(=O)N(CC)C(=O)N(c2ccc(N3CCN(c4ccc(OC[C@@H]5CO[C@@](Cn6cncn6)(c6ccc(F)cc6F)O5)cc4)CC3)cc2)C1=O (some centres not stated) , report its MIC50. 0.32

// repeat for "CCN1C(=O)N(c2ccc(N3CCN(c4ccc(OC[C@@H]5CO[C@@](Cn6cncn6)(c6ccc(F)cc6F)O5)cc4)CC3)cc2)C(=O)C(C)(C)C1=O" and report 0.32

Field entry: "CCCn1c(=O)n(CC)c(=O)n(-c2ccc(N3CCN(c4ccc(OC[C@H]5OC[C@](Cn6cncn6)(c6ccc(F)cc6F)O5)cc4)CC3)cc2)c1=O" 3.2

Could you do the same for "CCCn1c(=O)n(CC)c(=O)n(-c2ccc(N3CCN(c4ccc(OC[C@H]5CO[C@](Cn6cncn6)(c6ccc(F)cc6F)O5)cc4)CC3)cc2)c1=O" , please? 1

Same question for "CCN1C(=O)N(c2ccc(N3CCN(c4ccc(OC[C@H]5OC[C@](Cn6cncn6)(c6ccc(F)cc6F)O5)cc4)CC3)cc2)C(=O)C(C)(C)C1=O" please. 0.66

// query: "CCN1C(=O)N(c2ccc(N3CCN(c4ccc(OC[C@@H]5OC[C@@](Cn6cncn6)(c6ccc(F)cc6F)O5)cc4)CC3)cc2)C(=O)C(C)(C)C1=O" 15

Please do the same for "CCCn1c(=O)n(CC)c(=O)n(-c2ccc(N3CCN(c4ccc(OC[C@@H]5OC[C@@](Cn6cncn6)(c6ccc(F)cc6F)O5)cc4)CC3)cc2)c1=O" as well. 10
